What MIC was measured for each of the following?
- System: Pseudomonas aeruginosa
- Procedure Details: Antibacterial activity against Pseudomonas aeruginosa after 24 hrs micro dilution assay
- Format: functional
- Measurement Conditions: Pseudomonas aeruginosa, 24 h; read-out: MIC
Give just the numeric value; mg/L need not be written.

Query :: Return reported MIC; argument: CC(C)c1ccc(CNC2CCCCC2NCc2ccc(C(C)C)cc2)cc1.Cl (centres undefined)
Result :: 0.0005

Query :: Look up MIC for this compound: Brc1ccc(CN[C@H]2CCCC[C@@H]2NCc2ccc(Br)cc2)cc1.Cl
Result :: 0.008

Query :: Quick one: MIC for Cl.FC(F)(F)c1cccc(CNC2CCCCC2NCc2cccc(C(F)(F)F)c2)c1 (centres undefined) ?
Result :: 0.25

Query :: // MIC lookup, key: Cl.O=[N+]([O-])c1cccc(CNC2CCCCC2NCc2cccc([N+](=O)[O-])c2)c1 (centres undefined)
Result :: 0.25
